src = patent US20060128721A1

molecular target: cloned human h-NK3 receptors expressed in CHO cells (Homo sapiens, UniProt P29371); construct: expressed in transfected cells; host or cells: CHO cells; assay: Binding experiment for h-NK3 receptors ([3H]-SR-142801 displacement); details: [3H]-SR-142801, CHO cells; read-out: h-NK3 pIC50 (converted)
Sequence (P29371 whole entry): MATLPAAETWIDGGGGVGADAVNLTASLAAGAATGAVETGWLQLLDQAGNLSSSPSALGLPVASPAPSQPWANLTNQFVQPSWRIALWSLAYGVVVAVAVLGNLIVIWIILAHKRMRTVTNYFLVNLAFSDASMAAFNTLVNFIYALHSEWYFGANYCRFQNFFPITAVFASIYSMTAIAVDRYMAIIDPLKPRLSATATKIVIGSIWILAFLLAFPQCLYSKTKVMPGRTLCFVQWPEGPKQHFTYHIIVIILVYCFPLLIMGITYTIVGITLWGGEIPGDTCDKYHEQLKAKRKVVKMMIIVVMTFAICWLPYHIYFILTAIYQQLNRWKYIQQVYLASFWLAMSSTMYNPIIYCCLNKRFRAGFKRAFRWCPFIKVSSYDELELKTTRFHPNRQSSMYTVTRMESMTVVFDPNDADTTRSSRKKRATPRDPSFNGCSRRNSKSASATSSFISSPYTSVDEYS
readout type: IC50
Express the reported value numerically, then name its unit.

compound="Cc1cc(C)cc(C(=O)N2CCC(N3CCN(C4CCN(C(=O)c5cc(C(F)(F)F)cc(C(F)(F)F)c5)C(Cc5ccccc5)C4)CC3)CC2Cc2ccccc2)c1 (single isomer, unassigned) [Compound 10]" endpoint_result="631 nM"
compound="Cc1nnsc1C(=O)N1CCC(N2CCN([C@@H]3CCN(C(=O)c4cc(C(F)(F)F)cc(C(F)(F)F)c4)[C@@H](Cc4ccccc4)C3)CC2)CC1 [Compound 141]" endpoint_result="3980 nM"
compound="O=C(c1snnc1CO)N1CCC(N2CCN(C3CCN(C(=O)c4cc(C(F)(F)F)cc(C(F)(F)F)c4)C(Cc4ccccc4)C3)CC2)CC1 (stereo not drawn) [Compound 144]" endpoint_result="631 nM"
compound="COc1ccc(C)cc1S(=O)(=O)N1CCC(N2CCN(C3CCN(C(=O)c4cc(C(F)(F)F)cc(C(F)(F)F)c4)C(Cc4ccccc4)C3)CC2)CC1 (stereo not drawn) [Compound 119]" endpoint_result="1000 nM"
compound="O=C(c1cc(C(F)(F)F)cc(C(F)(F)F)c1)N1CCC(N2CCN(C3CCN(Cc4cc(C(F)(F)F)cc(C(F)(F)F)c4)CC3)CC2)CC1Cc1ccccc1 (stereo not drawn) [Compound 26]" endpoint_result="1000 nM"

Note: attention shifts to another entry.
Give IC50 (cloned human h-NK3 receptors expressed in CHO cells (Homo sapiens, UniProt P29371)) of the following compound: Cc1nnsc1C(=O)N1CCC(N2CCN([C@@H]3CCN(C(=O)c4cc(C(F)(F)F)cc(C(F)(F)F)c4)[C@H](Cc4ccccc4)C3)CC2)CC1 [Compound 139]
316 nM
